Values from paper PMC3555816

- system: UniProtKB F5ANI5
- testSummary: Fluorescence binding of 1-NPN to HarmOBP7-m2 (K123M)
- conditionLabel: read-out: Dissociation constant of 1-NPN; HarmOBP7-m2, 2 µM protein in Tris, pH 7.4, three replicates, SD 0.22
pKd: −log10 of the molar value.
assayEndpoint: pKd

• c1ccc(Nc2cccc3ccccc23)cc1 = 5.49

* * *

- system: HarmOBP7-wt (Helicoverpa armigera, UniProt F5ANI5)
- Sequence (F5ANI5 entry or part of it): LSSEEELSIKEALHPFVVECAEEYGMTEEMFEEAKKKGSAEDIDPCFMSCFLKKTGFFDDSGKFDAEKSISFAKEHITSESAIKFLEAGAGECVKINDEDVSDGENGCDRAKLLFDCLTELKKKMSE
- testSummary: Competitive binding assay, displacement of 1-NPN from HarmOBP7-wt
- conditionLabel: HarmOBP7-wt, 2 µM protein and 2 µM 1-NPN, pH 7.4; values larger than 16 extrapolated from the competitive binding curves; read-out: [IC]50
pIC50: −log10 of the molar value.
assayEndpoint: pIC50

- CCCCCCCCCCCCCCCCO: < 4.80
- CCCCCCCCCCCCCCCCCCO: < 4.60
- COc1ccc(-c2ccccc2)cc1: < 4.80
- CCCCCCCCCC(=O)OCC [Ethyl decanoate]: < 4.80
- CCCCCCCCCCCCO: < 4.60
- COC(=O)C=Cc1ccccc1 [Methyl cinnamate]: < 4.80
- CCCCCCCCCCC(C)=O: < 4.80
- CCCCCCCCCCCCCCCO: < 4.60

* * *

- system: UniProt:F5ANI5
- testSummary: Competitive binding assay, displacement of 1-NPN from HarmOBP7-wt
pIC50: −log10 of the molar value.
The following compounds are shown together with reported pIC50 values.
assayEndpoint: pIC50

* O=Cc1ccccc1 [Benzaldehyde] | 4.97
* CCCCCCCCCCCCCCO [1-Tetradecanol] | 5.17
* COc1cc(/C=C/C=O)ccc1O [Coniferyl aldehyde] | 4.90

* * *

pIC50 overview
- system: UniProtKB F5ANI5
- testSummary: Competitive binding assay, displacement of 1-NPN from HarmOBP7-wt
- conditionLabel: HarmOBP7-wt, 2 µM protein and 2 µM 1-NPN, pH 7.4; concentration of ligand halving initial 1-NPN fluorescence; read-out: [IC]50
pIC50: −log10 of the molar value.
assayEndpoint: pIC50

- CCCCCCCCCCCCCO [1-Tridecanol]: 5.34
- CCCCOC(=O)/C=C/c1ccccc1 [Butyl cinnamate]: 5.02
- CCCCCCCCCCCC(=O)OCC [Ethyl laurate]: 5.37
- CCCCC/C(C=O)=C/c1ccccc1 [α-Amylcinnamaldehyde]: 5.26
- CC(C)(C)c1ccc(C(=O)c2ccccc2)cc1 [p-tert-Butylbenzophenone]: 5.35
- CC(C)CCCC(C)CCOC(=O)c1ccccc1 (stereo not drawn) [3,7-Dimethyloctylbenzoate]: 5.46
- CCCCCCCCCCCCCCCC(=O)OCC [Ethyl palmitate]: 4.90
- CCCCCCCCCCCCOC(C)=O [Dodecyl acetate]: 5.28
- CCCCCCCCCCCC(C)=O [2-Tridecanone]: 5.02
- COc1ccccc1C=CC=O [2-Methoxycinnamaldehyde]: 4.83
- CCCCCCCCCCCCCCCCC=O [Heptadecanal]: 5.04
- CCCCCCCCCCCCC=O [Tridecanal]: 5.31

* * *

- system: HarmOBP7-wt (Helicoverpa armigera, UniProt F5ANI5)
- testSummary: Fluorescence binding of 1-NPN to HarmOBP7-wt
- conditionLabel: 2 µM protein in Tris, pH 7.4, three replicates, SD 0.63, read-out: Dissociation constant of 1-NPN
assayEndpoint: Kd (µM)

- c1ccc(Nc2cccc3ccccc23)cc1 [1-NPN, N-phenyl-1-naphthylamine]: 5.5
